Listed molecules paired with reported surface tension liquid-gas
- condition.parameters: 318 K, Capillary rise
measurement.kind: surface tension liquid-gas (mN/m)

CCCCCCn1cc[n+](C)c1.[I-] [1-hexyl-3-methylimidazolium iodide] | 41.9
CCCCCCCC[n+]1ccn(C)c1.[Cl-] [1-methyl-3-octylimidazolium chloride] | 30.9
CCCCCCn1cc[n+](C)c1.F[B-](F)(F)F [1-hexyl-3-methylimidazolium tetrafluoroborate] | 38.1
CCCCCCn1cc[n+](C)c1.[Cl-] [1-hexyl-3-methylimidazolium chloride] | 40.5
CCCCn1cc[n+](C)c1.F[P-](F)(F)(F)(F)F [1-butyl-3-methylimidazolium hexafluorophosphate] | 46
CCCCn1cc[n+](C)c1.[I-] [1-butyl-3-methylimidazolium iodide] | 51.5
CCCCCCCC[n+]1ccn(C)c1.F[B-](F)(F)F [1-methyl-3-octylimidazolium tetrafluoroborate] | 29.6
CCCCn1cc[n+](C)c1.[Cl-] [1-butyl-3-methylimidazolium chloride] | 46.9
CCCCCCn1cc[n+](C)c1.F[P-](F)(F)(F)(F)F [1-hexyl-3-methylimidazolium hexafluorophosphate] | 41.9
CCCCn1cc[n+](C)c1.F[B-](F)(F)F [1-butyl-3-methylimidazolium tetrafluoroborate] | 42.3

* * *

- condition.parameters: 368 K, Capillary rise
Binary call on surface tension liquid-gas with cut-off 40 mN/m: strictly below means label 1, and equality or higher means label 0.

CCCCCCCC[n+]1ccn(C)c1.[Cl-] [1-methyl-3-octylimidazolium chloride] | label 1
CCCCn1cc[n+](C)c1.[Cl-] [1-butyl-3-methylimidazolium chloride] | label 0
CCCCn1cc[n+](C)c1.[I-] [1-butyl-3-methylimidazolium iodide] | label 0
CCCCCCCC[n+]1ccn(C)c1.F[B-](F)(F)F [1-methyl-3-octylimidazolium tetrafluoroborate] | label 1
CCCCn1cc[n+](C)c1.F[P-](F)(F)(F)(F)F [1-butyl-3-methylimidazolium hexafluorophosphate] | label 0
CCCCCCn1cc[n+](C)c1.[Cl-] [1-hexyl-3-methylimidazolium chloride] | label 1
CCCCCCn1cc[n+](C)c1.F[B-](F)(F)F [1-hexyl-3-methylimidazolium tetrafluoroborate] | label 1
CCCCCCn1cc[n+](C)c1.[I-] [1-hexyl-3-methylimidazolium iodide] | label 1

* * *

- condition.parameters: 298 K, Capillary rise
Listed compounds paired with reported surface tension liquid-gas
measurement.kind: surface tension liquid-gas (mN/m)

CCCCCCn1cc[n+](C)c1.[Cl-] [1-hexyl-3-methylimidazolium chloride] | 41.8
CCCCn1cc[n+](C)c1.[I-] [1-butyl-3-methylimidazolium iodide] | 53.3
CCCCn1cc[n+](C)c1.[Cl-] [1-butyl-3-methylimidazolium chloride] | 48.2

* * *

- condition.parameters: 353 K, Capillary rise
measurement.kind: surface tension liquid-gas (mN/m)

CCCCCCn1cc[n+](C)c1.[I-] [1-hexyl-3-methylimidazolium iodide] | 39.4
CCCCn1cc[n+](C)c1.[I-] [1-butyl-3-methylimidazolium iodide] | 48.6
CCCCCCn1cc[n+](C)c1.F[B-](F)(F)F [1-hexyl-3-methylimidazolium tetrafluoroborate] | 36.4
CCCCn1cc[n+](C)c1.F[P-](F)(F)(F)(F)F [1-butyl-3-methylimidazolium hexafluorophosphate] | 43.5
CCCCCCCC[n+]1ccn(C)c1.[Cl-] [1-methyl-3-octylimidazolium chloride] | 28.9
CCCCCCn1cc[n+](C)c1.F[P-](F)(F)(F)(F)F [1-hexyl-3-methylimidazolium hexafluorophosphate] | 39.5
CCCCCCn1cc[n+](C)c1.[Cl-] [1-hexyl-3-methylimidazolium chloride] | 38.5
CCCCn1cc[n+](C)c1.[Cl-] [1-butyl-3-methylimidazolium chloride] | 44.7
CCCCn1cc[n+](C)c1.F[B-](F)(F)F [1-butyl-3-methylimidazolium tetrafluoroborate] | 40.4
CCCCCCCC[n+]1ccn(C)c1.F[B-](F)(F)F [1-methyl-3-octylimidazolium tetrafluoroborate] | 27.9
